Below, each entry is listed with its recorded kon.
study target: T1, TP-51 peptide (aa 352-414 of SEQ ID NO:1) (human)
T1 construct: Synthetic peptide (Pepscan)
T1 peptide: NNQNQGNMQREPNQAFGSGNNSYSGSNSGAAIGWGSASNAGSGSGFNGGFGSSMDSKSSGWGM
procedure summary: SPR 8K, mAb captured, TP-51 injected
I only need the number, in M⁻¹ s⁻¹, no unit after it.

Examples with answers:
binder="hACI-7069-633B12-Ab1_H19L18 (IgG4) (antibody, V domains shown) VH: QVQLVQSGAEVKKPGASVKVSCKTSGFTFTEYSMHWVRQAPGQRLEWIGGINPGNAGTSYNQKFKGRVTITVDTSASTAYMELSSLRSEDTAVYYCARESWGQGTTVTVSS VL: DVVMTQSPLSLPVTLGQPASISCKSSQSLLHSDAKTYLNWLQQRPGQSPRRLIYLVSKLDSRVPDRFSGSGSGTDFTLKISRVEAEDLGVYYCFQGTHFPHTFGQGTKLEIK" measured_attribute=kon assay_value=120000
binder="hACI-7069-633B12-Ab1_H19L14 (IgG4) (antibody, V domains shown) VH: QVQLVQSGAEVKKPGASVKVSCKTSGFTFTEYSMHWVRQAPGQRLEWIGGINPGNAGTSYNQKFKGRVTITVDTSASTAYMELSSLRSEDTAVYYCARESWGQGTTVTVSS VL: DVVMTQSPLSLPVTLGQPASISCKSSQSLLHSDAKTYLNWLQQRPGQSPRRLIYLVSKLDSGVPDRFSGSGSGTDFTLKISRVEAEDLGVYYCFQGTHFPHTFGQGTKLEIK" measured_attribute=kon assay_value=120000

Next, consider the following binder.
Which value of kon has been reported for hACI-7069-633B12-Ab1_H17L14 (IgG4) (antibody, V domains shown) VH: QVQLVQSGAEVKKPGASVKVSCKASGFTFTEYSMHWVKQAPGQRLEWMGGINPGNAGTSYNQKFKGRVTITVDTSASTAYMELSSLRSEDTAVYYCARESWGQGTTVTVSS VL: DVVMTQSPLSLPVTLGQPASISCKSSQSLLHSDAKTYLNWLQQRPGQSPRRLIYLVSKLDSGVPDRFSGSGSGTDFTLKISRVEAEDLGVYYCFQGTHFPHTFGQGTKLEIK in the records?
130000
